assaySystem: T1, hCD112R mFC recombinant protein (human; murine, UniProt Q6DKI7 41-160)
T1 construct: range 41-160; expressed in 293E cells; also called hCD112R ECD mFC; hCD112R-ECD-mFC; not shown: murine IgG2a Fc domain (MX2-mFc vector)
T1 sequence (looked up): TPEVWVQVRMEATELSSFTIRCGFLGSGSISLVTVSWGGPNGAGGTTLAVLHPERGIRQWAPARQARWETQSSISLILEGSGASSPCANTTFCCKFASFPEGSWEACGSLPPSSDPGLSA
methodDescription: FACS competition, hCD112R mFc on CHO CD112 cells
readoutKind: IC50 (µg/mL)
One number for each entry, in µg/mL.

Prompt: # query: IC50 of entry Hu60 (antibody, IgG4, V domains shown, humanized IgG4) VH: EVQLVESGGGLVQPGGSLRLSCAASGFTFSSYHMSWIRQAPGKGLELVAAINSNGINTYYLDTVKGRFTISRDNAKNSLYLQMNSLRAEDTAVYYCARHEDYYGFAMDYWGQGTLVTVSS VL: EIVMTQSPPTLSLSPGERVTLSCKASQSVSNDVAWYQQKPGQAPRLLIYYVSNRFTGIPARFSGSGSGTDFTLTISSLQPEDFAVYFCQQAYRSPWTFGQGTKLEIK
Response: 3.49
